TGI: recorded values
# System: CAKI-1 renal
# test_details: NCI tumour cell line growth inhibition, 48 h

# molecule, result
records = [
    ("COC(=O)c1cc2c3ccccc3n3c(=O)c4cc5ccc(N(S(=O)(=O)c6ccc(C)cc6)S(=O)(=O)c6ccc(C)cc6)cc5nc4c(n1)c23", "> 100 µM"),
    ("O=C(O)c1ccc(CI)cc1", "27.6 µM"),
    ("CSc1ccc(-c2cc(-c3nc4ccccc4[nH]3)no2)cc1", "70 µM"),
]

### Prompt Name the recorded TGI for O=C(c1nc2ccc([N+](=O)[O-])cc2[nH]c1=O)C(O)c1ccc2c(c1)OCO2 (stereo not given) .
### Response > 100 µM

### Prompt `O=C1c2ccccc2C(=O)c2cc(N=Nc3c(O)ccc4ccccc34)ccc21` , same question.
### Response > 100 µM

### Prompt `C/C(=N\N=C(\N)SB(F)F)c1ccc2ccccc2c1` , same question.
### Response > 100 µM

### Prompt `O=C(/C=C/c1ccc(-c2ccccc2)cc1)NCc1ccc(C(=O)NCc2ccccc2)cc1` , same question.
### Response > 100 µM

### Prompt `Cc1nc(-c2ccccc2)n2nc(NCCCN3CCOCC3)ncc12` , same question.
### Response > 25 µM

### Prompt `O=C(/C=C/c1ccccc1)CSc1ncn[nH]1` , same question.
### Response > 100 µM

### Prompt `O=S(=O)(O)c1cc(N=Nc2c(O)ccc3ccccc23)ccc1/C=C/c1ccc(N=Nc2c(O)ccc3ccccc23)cc1S(=O)(=O)O` , same question.
### Response > 100 µM

---

# Test system: HS 578T breast
# test_details: NCI tumour cell line growth inhibition, 48 h
TGI: recorded values
Use µM as the unit, but write only the number.

Completed entries (count: 4):
# compound, TGI / µM
rows = [
    ("CCCCCCCCCCCCCCCCCC1=NC(C)(C)CN1CC(C)O (configuration not stated)", 34.2),
    ("CC(=O)c1ccc2c(c1)C1C=CCC1[C@H](c1cc3c(cc1Br)OCO3)N2 (some centres not stated)", 2.19),
    ("C=CCC1CC(n2cc(C)c(=O)[nH]c2=O)OC1CO[Si](C)(C)C(C)(C)C (configuration not stated)", 29.4),
    ("Cc1ncc(C(=O)Nc2ccc(CN3CCN(C)CC3)c(C(F)(F)F)c2)cc1C#Cc1cnc2cccnn12", 3.3),
]

Now, please, on to the next compound.
### Prompt Name the recorded TGI for `O=[N+]([O-])c1ccc2c(c1)N([O-])C1(CCCCC1)[N+]2=O` .
### Response 47.9

---

# Test system: UACC-62 melanoma
# test_details: NCI tumour cell line growth inhibition, 48 h
TGI: recorded values
Use µM as the unit, but write only the number.

### Prompt API: value(readout=TGI, system=UACC-62 melanoma) for record `[C](#Cc1ccccc1)[Hg][C]#Cc1ccccc1`
### Response 53.7

---

TGI: recorded values
# Tested on: IGROV1 ovarian
# test_details: NCI tumour cell line growth inhibition, 48 h

# compound, result
data = [
    ("CC[C@H](Nc1ncnc2nc[nH]c12)c1nc2cccc(F)c2c(=O)n1-c1ccccc1", "22.7 µM"),
    ("[N-]=[N+]=NC(c1cn(C2CC(O)C(CO)O2)c(=O)[nH]c1=O)C(Br)Br (stereo not drawn)", "> 100 µM"),
    ("O=C(c1nc2ccc([N+](=O)[O-])cc2[nH]c1=O)C(O)c1ccc2c(c1)OCO2 (stereo not drawn)", "> 100 µM"),
]

### Prompt API: value(readout=TGI, system=IGROV1 ovarian) for record CC1CCC2(NC1)OC1CC3C4CC=C5CC(O)CCC5(C)C4CCC3(C)C1C2C (stereo not drawn)
### Response > 100 µM

### Prompt `CCNc1cc(-c2cccc(OC(F)(F)F)c2)nc2ccc(N3CCCC3)cc12` , same question.
### Response 4.79 µM

### Prompt `Clc1ccc(C2=NN=C3C(c4ccccc4)=Nc4ccccc4N3C2)cc1` , same question.
### Response > 100 µM

### Prompt `O=S(=O)(O)c1cc(N=Nc2c(O)ccc3ccccc23)ccc1/C=C/c1ccc(N=Nc2c(O)ccc3ccccc23)cc1S(=O)(=O)O` , same question.
### Response > 100 µM

### Prompt `CS(=O)(=O)CCNCc1cc(-c2cc3c(Nc4ccc(OCc5cccc(F)c5)c(Cl)c4)ncnc3s2)cs1` , same question.
### Response > 25 µM

### Prompt `O=C(/C=C/c1ccc(-c2ccccc2)cc1)NCc1ccc(C(=O)NCc2ccccc2)cc1` , same question.
### Response > 100 µM

### Prompt `COc1cc(OC)c(C(=O)/C=C/c2cc3c(cc2OCc2ccccc2)OC(C)(C)CC3)cc1CC=C(C)C` , same question.
### Response > 25 µM

### Prompt COc1ccc(C(=O)O[C@H]2[C@@H]3C=CO[C@@H](OC4OC(CO)C(O)C(O)C4O)[C@@H]3[C@@]3(CO)O[C@@H]23)cc1O (stereo partly drawn) , same question.
### Response > 100 µM

### Prompt `CN(C(=O)Cc1ccccc1)n1cnn(CC(=O)OC(C)(C)C)c1=S` , same question.
### Response > 10 µM

### Prompt `COc1ccc(-c2cs/c(=N\N=C\c3ccc(O)cc3O)n2/N=C/c2ccc(O)cc2O)cc1` , same question.
### Response 6.5 µM

### Prompt `O=C(O)Cc1ccc(Nc2nc3cc(C(F)(F)F)ccc3nc2C(=O)O)cc1` , same question.
### Response > 100 µM

### Prompt COc1ccc(NC(=O)CC2SC(=Nc3ccccc3C)NC2=O)c([N+](=O)[O-])c1 (stereo not drawn) , same question.
### Response > 100 µM

---

# System: A549 NSCLC
# test_details: NCI tumour cell line growth inhibition, 48 h
reported_metric: TGI

Completed entries (count: 5):
# compound, TGI
measured = [
    ("[C](#Cc1ccccc1)[Hg][C]#Cc1ccccc1", "> 100 µM"),
    ("CN(C(=O)C12C3C4C5C3C1(C(=O)C13C6C7C8C6C1C8C73)C5C42)C(C)(C)C (stereo not given)", "> 50 µM"),
    ("O=C1c2cc(Cl)ccc2NC(=NC2CCCC2)C2CSCN12 (stereo not given)", "> 100 µM"),
    ("CC[C@H](Nc1ncnc2nc[nH]c12)c1nc2cccc(F)c2c(=O)n1-c1ccccc1", "> 100 µM"),
    ("O=C(O)CCC(=O)c1ccc2c(c1)C(C(=O)O)CC2 (stereo not given)", "> 100 µM"),
]

### Prompt Name the recorded TGI for `Cc1nc(C)c(N2CCN(S(=O)(=O)N(Cc3ccccc3)Cc3ccccc3)CC2)c(=O)[nH]1` .
### Response > 100 µM

### Prompt `COC(=O)c1ccc(/C=C2\Oc3ccccc3C2=O)cc1` , same question.
### Response > 100 µM

---

# System: U251 CNS
# test_details: NCI tumour cell line growth inhibition, 48 h
reported_metric: TGI

Completed entries (count: 3):
# compound, tgt, TGI
data = [
    ("CN(CCCCCl)P(=O)(OCCS(=O)(=O)CC(NC(=O)CCC(N)C(=O)O)C(=O)NC(C(=O)O)c1ccccc1)OCC1OC(n2ccc(N)nc2=O)C(F)(F)C1O (centres undefined)", "U251 CNS", "> 100 µM"),
    ("O=C(/C=C/c1cccc(Oc2ccccc2)c1)NCc1ccc(C(=O)NCc2ccccc2)cc1", "U251 CNS", "> 100 µM"),
    ("COc1ccc(-n2c(N)c(C#N)[nH]c2=O)cc1", "U251 CNS", "> 10 µM"),
]

Now, please, on to the next compound.
### Prompt Name the recorded TGI for `C#C/C=C\CCCC/C=C\C#CC#CCCCC#CC#C[C@H](COS(=O)(=O)O)OS(=O)(=O)O` .
### Response > 100 µM

---

# Tested on: M14 melanoma
# test_details: NCI tumour cell line growth inhibition, 48 h
TGI: recorded values

Completed entries (count: 3):
# compound, tgt, TGI
records = [
    ("Cc1ccc2c(c1)C(=O)c1nc(C)ccc1C2=O", "M14 melanoma", "> 100 µM"),
    ("CCC1(N=[N+]=[N-])C(=O)c2ccccc2N(C)C1=O (stereo unspecified)", "M14 melanoma", "> 100 µM"),
    ("CCOC(=O)C1=C(Nc2ccc(Cl)cc2Cl)OCC1=O", "M14 melanoma", "> 100 µM"),
]

### Prompt Name the recorded TGI for `CCP(=O)(CC)C(Cl)Cl` .
### Response > 100 µM

### Prompt `CC(=O)c1c(C)nc(SSc2nc(C)c(C(C)=O)c(-c3ccc(Cl)cc3)c2C#N)c(C#N)c1-c1ccc(Cl)cc1` , same question.
### Response > 150 µg/mL

### Prompt CC1=Nc2c(ccc3c2C(=O)c2ccccc2C3=O)NC(c2cccc3c2CCC3)C1 (stereo unspecified) , same question.
### Response > 100 µM

### Prompt C=CCC1CC(n2cc(C)c(=O)[nH]c2=O)OC1CO[Si](C)(C)C(C)(C)C (stereo unspecified) , same question.
### Response 33.5 µM

### Prompt `Brc1ccc(C[P+]2(c3ccccc3)CCCCC2)cc1` , same question.
### Response > 100 µM
